Provide the recorded ΔTm for the entries that follow.
System: Calf thymus DNA
assayName: Binding affinity to calf thymus DNA assessed as change in melting temperature after 18 hrs
Format: nucleic-acid assay
setupConditions: Bos taurus

COc1ccc(-c2nnc(-c3ccc(C(F)(F)F)cc3)o2)cc1OCCCCCOc1cc2c(cc1OC)C(=O)N1CCC[C@H]1C=N2; 1.7 °C
COc1ccc(-c2nnc(-c3cc(OC)c(OC)c(OC)c3)o2)cc1OCCCCOc1cc2c(cc1OC)C(=O)N1CCC[C@H]1C=N2; 2.1 °C
COc1ccc(-c2nnc(-c3cc(OC)c(OC)c(OC)c3)o2)cc1OCCCCCOc1cc2c(cc1OC)C(=O)N1CCC[C@H]1C=N2; 1.6 °C
COc1ccc(-c2nnc(-c3ccc(OC)c(OCCCCCOc4cc5c(cc4OC)C(=O)N4CCC[C@H]4C=N5)c3)o2)cc1OC; 5.8 °C

We next turn to a different molecule, shown below.
State the recorded ΔTm for this entry: COc1ccc(-c2nnc(-c3ccc(F)cc3)o2)cc1OCCCOc1cc2c(cc1OC)C(=O)N1CCC[C@H]1C=N2 2 °C
